Target: NL20 human bronchial epithelial cells expressing human Z-AAT (Homo sapiens, UniProt P01009, E366K)
Construct: expressed in transfected cells; host or cells: NL20 human bronchial epithelial cells (NL20-SI line), doxycycline added with compounds
Sequence (P01009 25-418 E366K): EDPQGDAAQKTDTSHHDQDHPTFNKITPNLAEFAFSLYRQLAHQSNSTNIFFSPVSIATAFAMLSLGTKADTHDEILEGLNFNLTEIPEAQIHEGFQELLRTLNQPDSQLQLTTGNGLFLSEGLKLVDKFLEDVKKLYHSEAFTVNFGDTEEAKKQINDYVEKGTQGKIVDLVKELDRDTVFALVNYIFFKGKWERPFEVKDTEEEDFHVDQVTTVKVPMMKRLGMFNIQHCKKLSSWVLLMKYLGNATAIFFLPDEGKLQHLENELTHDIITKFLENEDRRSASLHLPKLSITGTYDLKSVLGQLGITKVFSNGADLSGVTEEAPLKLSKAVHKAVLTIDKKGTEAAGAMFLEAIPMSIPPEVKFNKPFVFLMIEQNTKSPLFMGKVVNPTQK
Test: AAT Function Assay (MSD Assay NL20-SI Cell Line)
Assay type: cell-based
Conditions: functionally active AAT in supernatant of NL20 cells expressing human Z-AAT, complex with hNE, MSD readout; read-out: NL20 Functional EC50
pEC50: −log10 of the molar value.
Task for the reader: assign each of the following molecules its reported pEC50.

Exercise: Look at this molecule and give its reported pEC50. CC1(C)COC(C23CC(C(=O)O)(C2)C3)c2c1n(-c1ccc(F)cc1)c1cccc(O)c21 (stereo not drawn)
Solution: < 5.52

Exercise: Request the reported pEC50 associated with CC1(C)COC(C)(c2cccc(C(=O)O)c2)c2c1n(-c1ccc(F)c(F)c1)c1cccc(O)c21 (stereo not drawn)
Solution: > 5.92

Exercise: Record request: pEC50 value, item CC1(C)COC(C)(c2ccc(C(=O)O)cc2F)c2c1n(-c1ccc(F)cc1)c1cc(F)cc(O)c21 (stereo not drawn) [Compound 182]
Solution: > 5.92

Exercise: Look up pEC50: CC1(C)COC(C)(Cc2ccc(C(=O)O)cc2)c2c1n(-c1ccc(F)cc1)c1cccc(O)c21 (stereo not drawn)
Solution: > 5.92

Exercise: Which pEC50 value is on record for `CO[C@]1(C(=O)O)CC[C@@]2(CC1)OCC(C)(C)c1c2c2c(O)cccc2n1-c1ccc(F)c(F)c1` ?
Solution: < 5.52

Exercise: Form field: reported pEC50 of `CC1(C)CO[C@]2(C[C@@](C)(C(=O)O)C2)c2c1n(-c1ccc(F)c(F)c1)c1cccc(O)c12`
Solution: 5.52 to 5.92

Exercise: I'd like to know its pEC50. The molecule in question is `CO[C@]1(C(=O)O)CC[C@]2(CC1)OCC(C)(C)c1c2c2c(O)cccc2n1-c1ccc(F)c(F)c1`
Solution: < 5.52

Exercise: Item under review: CC1(C)OCC(C)(c2ccc(C(=O)O)s2)c2c1n(-c1ccc(F)cc1)c1cccc(O)c21 (stereo not drawn) [Compound 196] . Reported pEC50?
Solution: < 5.52

Exercise: If you can, please state the reported pEC50 value of CC1(C)COC(C)(c2ccc(C(=O)O)s2)c2c1n(-c1ccc(F)c(F)c1)c1cccc(O)c21 (stereo not drawn) [Compound 56] .
Solution: < 5.52

Exercise: Find the recorded pEC50 belonging to CC1(C)COC(C)(c2scnc2C(=O)O)c2c1n(-c1ccc(F)cc1)c1cccc(O)c21 (stereo not drawn) and report it.
Solution: < 5.52

Exercise: Give its pEC50 value. Item: `CC1(C)CO[C@]2(CC[C@@](F)(C(=O)O)CC2)c2c1n(-c1ccc(F)c(F)c1)c1cc(F)cc(O)c12`
Solution: 5.52 to 5.92

Exercise: Which value of pEC50 has been reported for CC1(C)COC(C)(c2ccc(C(=O)O)cc2F)c2c1n(-c1ccc(F)cc1)c1cccc(O)c21 (racemic) [Compound 109] in the records?
Solution: > 5.92

Exercise: Quick check: pEC50 of CC1(C)COC(C)(CCC(=O)O)c2c1n(-c1ccc(F)cc1)c1cccc(O)c21 (stereo not drawn) ?
Solution: < 5.52

Exercise: Field request: pEC50 | item: `Cc1cc(-n2c3c(c4c(O)cccc42)[C@]2(CC[C@H](C(=O)O)C2)OCC3(C)C)ccc1F`
Solution: > 5.92

Exercise: Quick check: pEC50 of CC1(C)COC(C)(c2ccccc2C(=O)O)c2c1n(-c1ccc(F)cc1)c1cccc(O)c21 (stereo not drawn) ?
Solution: 5.52 to 5.92
